system: SF-268 CNS; assay: NCI tumour cell line growth inhibition, 48 h

Compound	TGI
Cc1cc(N(CCC#N)CCC#N)ccc1/C(N=Nc1ccc(Cl)cc1)=N\NC(=O)c1ccccc1	> 100 µM
Cc1cc(I)cc(CN(C)CCCCN2CCCCC2)c1O	27.3 µM
COc1cc([C@@H]2OCC3C(c4ccc5c(c4)OCO5)OCC32)cc(OC)c1OC (some centres undefined)	> 100 µM
O=[N+]([O-])C(=C1NCCN1)/C(Cl)=C(\Cl)Br	> 89.9 µM
COc1ccc2c(c1)/C(=C/c1c(C)nc3sc(C)nn13)C(=O)N2	> 50.5 µM
CC1=C(C(=O)Nc2ccc(Cl)c(Cl)c2)C(c2cccc(Oc3ccccc3)c2)NC(=S)N1 (centres undefined)	12.9 µM
O=C(/C=C/c1ccccc1)NC1C=Nc2ccc(Cl)cc2NC1=O (centres undefined)	> 100 µM
COc1cc(/C=C2\S/C(=N/Nc3nc(-c4ccc(Br)cc4)cs3)NC2=O)cc(OC)c1OC	> 100 µM
O=C(Nc1ccccc1)NS(=O)(=O)c1ccc(-n2nc3c(c2-c2cccs2)Cc2ccccc2-3)cc1	> 100 µM
CC[C@@]1(C[C@H]2C[C@@]3(C(=O)OC)c4[nH]c5ccccc5c4CCN3C2=O)COC2(CCCCC2)O1	> 100 µM
N#CN=C(N(Cc1ccccc1)Cc1ccccc1)N(Cc1ccccc1)Cc1ccccc1	> 100 µM
CC[C@@]1(O)C(=O)OCc2c1cc1n(c2=O)Cc2c-1nc1ccccc1c2/C=N\NC(=O)CN	16.7 µM
N#CC1=C(N)N(c2ccccc2)C(c2ccco2)C1(C#N)C#N (centres undefined)	> 100 µM
O=C1OCC(O)=C1C(c1ccc(Cl)cc1)c1cc2c(cc1O)OCO2 (centres undefined)	> 100 µM
